Test system: soleus muscle
Assay: rat muscle function test: muscle weight (atrophy of immobilized extremity)
Assay type: in vivo, male Wistar rats
Settings: oral, 1x per day for 3 weeks, as a rule 25 mg/kg, difference ≤25% classified as an effect
measured property: Muscle weight (right/left difference)

CCCCn1cnc2c1c(=O)n(CP(C)(C)=O)c(=O)n2CCCC [Example 72] ... -18 Δ %

What the record says about CCOP(=O)(CCCCn1cnc2c1c(=O)[nH]c(=O)n2C)OCC [Example 3] : Muscle weight (right/left difference) is 0 Δ %

What the record says about CCOP(=O)(CCCCCn1c(=O)c2c(ncn2CC2CC2)n(C)c1=O)OCC [Example 49] : Muscle weight (right/left difference) is -25 Δ %

What the record says about CCOP(=O)(CCCn1c(=O)c2c(ncn2C)n(C)c1=O)OCC [Example 33] : Muscle weight (right/left difference) is -16 Δ %

Where do these numbers come from? They come from patent US5728686A.
